biological target: V1aR (Homo sapiens, UniProt P37288); experiment: Ca2+ mobilization in cells stably expressing V1aR (FLIPR, antagonist mode); details: V1a-CHO stably transfected cell line
Sequence (P37288 whole entry, species assumed): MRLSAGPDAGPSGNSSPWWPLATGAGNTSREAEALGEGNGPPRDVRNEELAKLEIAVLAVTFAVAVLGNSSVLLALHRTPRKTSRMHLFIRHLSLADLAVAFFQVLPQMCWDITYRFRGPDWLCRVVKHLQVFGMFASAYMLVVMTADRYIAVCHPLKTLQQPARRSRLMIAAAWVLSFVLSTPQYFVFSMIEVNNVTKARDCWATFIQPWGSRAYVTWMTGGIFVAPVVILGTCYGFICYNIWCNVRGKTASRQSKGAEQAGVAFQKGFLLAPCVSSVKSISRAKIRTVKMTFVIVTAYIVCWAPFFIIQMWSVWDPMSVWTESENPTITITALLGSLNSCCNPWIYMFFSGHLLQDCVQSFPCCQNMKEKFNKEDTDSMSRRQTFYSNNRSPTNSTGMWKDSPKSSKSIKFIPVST
MEASURE_NAME: IC50 (nM)
Supply the numeric figure in nM, leaving out any unit text.

Some solved cases for reference:
CO/N=C1/C[C@@H](CO)N(C(=O)c2ccc(-c3cccc(C)c3C)cc2C)C1	3500
CO/N=C1/C[C@@H](CO)N(C(=O)c2ccc(-c3cccc(C#N)c3C)c3c2OCCO3)C1	2350

What value of IC50 has been reported for the following molecule? CO/N=C1/C[C@@H](CO)N(C(=O)c2ccc(-c3cccc(C#N)c3C)c(OC)c2)C1
1550

What value of IC50 has been reported for the following molecule? CO/N=C1/C[C@@H](CO)N(C(=O)c2ccc(-c3cccc(C)c3C)c(C)c2)C1
2400
